Biological target: T1, CD27 expressed on the cell surface (HT1080_CD27 cells) (human, UniProt P26842 20-260)
T1 construct: whole, on cells; also called K562_CD27
T1 sequence (looked up): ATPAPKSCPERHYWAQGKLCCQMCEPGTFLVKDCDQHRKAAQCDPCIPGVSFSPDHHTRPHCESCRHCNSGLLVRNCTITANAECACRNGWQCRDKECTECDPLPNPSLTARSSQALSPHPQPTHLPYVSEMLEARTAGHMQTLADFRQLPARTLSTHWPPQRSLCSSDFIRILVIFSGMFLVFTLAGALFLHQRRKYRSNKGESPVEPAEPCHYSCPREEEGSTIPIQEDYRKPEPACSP
Assay: cellular binding assay, HT1080_CD27 cells; further: test concentration or dose not given here
property-label: Cellular binding assay [RFU]
Respond with the figure and its unit, in that order.

P018.S.06.A.H04 (antibody, V domains shown, V regions on human Ig constant parts; also called AB27_111) VH: QEKLEESGGGLVKPGGSLTLPCTASGFTLSSRYYMCWVRQAPGKGLEWIGCIYAGSLRTWYASWAKGRFTISKTSSTTVTLQMTSLTAADTATYFCARSPGVAASYPELWGPGTLVTVSS VL: AQVLTQTPSSVAAAVGGTVSISCQSSQSVGNADNLAWYQQKPGQPPNLLIYYAASLASGVPSRFKGSGSGTQFTLTISDLESDDAATYYCGGGYYNSTDTFYTFGGGTEVVVK = 331 RFU
P018.S.07.A.H06 (antibody, V domains shown, V regions on human Ig constant parts; also called AB27_134) VH: QSLEESGGDLVQPGASLTLTCKASGIDLSSYWMCWVRQTPGKGLEWIGCIATYSSVTYYANWAKGRFTISKPSSTTVTLQMTSLTAADTATYFCARDPYSFNGSLFTLWGPGTLVTVSS VL: ALVMTQTASPVSAAVGGTVTIDCQASQNIGTYLAWYQQKPGQPPKLLIYTASSLASGVPSRFKGSGSGTQFTLTISDLESDDAATYYCAGYKNYNNDDNGFGGGTEVVVK = 327 RFU

Shifting focus to the binder that follows.
Measured Cellular binding assay [RFU] of P018.S.01.A.H06 (antibody, V domains shown, V regions on human Ig constant parts; also called AB27_26) VH: QEQLKESGGRLVKPDETLTITCTASGFSLSRYDMSWVRQAPGKGLEWIGSIWSDGDTDYANWAKGRFTISKTSTTVDLKITSPTTEDTATYFCARGYTAWSLWGPGTLVTVSS VL: ALVMTQTPSPVSAAVGGTVTISCQSSESVVGNNALSWFQQKPGQPPKLLNYQASTLASGVSSRFSGSGSGTQFTLTISGVQSDDAATYYCQGTYYSSGWYFAFGGGTEVVVK : 422 RFU
